The values you see were collected from the supplement of paper PMC9732359.

The reader will find reported protein stability index values listed item by item below.
- TEST DETAILS: protein stability index of a GFP-peptide fusion (yeast GPS) (PSI 1-4); higher = more stable; sorted into four equal gates, so the index is relative within each strain
- SETUP CONDITIONS: ubr1∆

{"columns": ["RESIDUES", "protein stability index"],
 "data": [
  ["NVIRSLEQEYRLILLLN [RMP1]", 1.35],
  ["AFRTLRLARSEKKFRGI [RPL13A]", 3.3],
  ["YVRKHDPLNSNIFSEAV [PRP28]", 3.1],
  ["DIYMHDVNSASKSESDS [RRP4]", 3.22],
  ["LPSGRQDGVLLVALSNE [FAS2]", 1.91],
  ["ANYIKERTKNAQFIVIS [SMC4]", 2.27],
  ["LIKMSRSPPRPPSLKII [PRP28]", 1.86],
  ["NITFSEELVSLAVFLFD [YJL039C/NUP192]", 1.66],
  ["IRGKILTGTVVSTKMHR [RPS11A]", 2.9],
  ["FLEKEKQLTLLRSKLFQ [SMC4]", 2.56],
  ["VHDKVLEDMVFPTEIVG [RPS7B]", 3.06],
  ["IIKGTDVYSPEKGSWEQ [BRR2]", 3.25],
  ["QEQVYPDFKPWEHTAAE [SRB8]", 2.93],
  ["IVPDLIINPHAIPSRMT [RPB2]", 2.16]
]}
